Target: human TRPV1 (Homo sapiens, UniProt Q8NER1)
Construct: expressed in transfected cells; host or cells: HEK293 (hTRPV1/HEK293), zeocin selection
Sequence (Q8NER1 whole entry): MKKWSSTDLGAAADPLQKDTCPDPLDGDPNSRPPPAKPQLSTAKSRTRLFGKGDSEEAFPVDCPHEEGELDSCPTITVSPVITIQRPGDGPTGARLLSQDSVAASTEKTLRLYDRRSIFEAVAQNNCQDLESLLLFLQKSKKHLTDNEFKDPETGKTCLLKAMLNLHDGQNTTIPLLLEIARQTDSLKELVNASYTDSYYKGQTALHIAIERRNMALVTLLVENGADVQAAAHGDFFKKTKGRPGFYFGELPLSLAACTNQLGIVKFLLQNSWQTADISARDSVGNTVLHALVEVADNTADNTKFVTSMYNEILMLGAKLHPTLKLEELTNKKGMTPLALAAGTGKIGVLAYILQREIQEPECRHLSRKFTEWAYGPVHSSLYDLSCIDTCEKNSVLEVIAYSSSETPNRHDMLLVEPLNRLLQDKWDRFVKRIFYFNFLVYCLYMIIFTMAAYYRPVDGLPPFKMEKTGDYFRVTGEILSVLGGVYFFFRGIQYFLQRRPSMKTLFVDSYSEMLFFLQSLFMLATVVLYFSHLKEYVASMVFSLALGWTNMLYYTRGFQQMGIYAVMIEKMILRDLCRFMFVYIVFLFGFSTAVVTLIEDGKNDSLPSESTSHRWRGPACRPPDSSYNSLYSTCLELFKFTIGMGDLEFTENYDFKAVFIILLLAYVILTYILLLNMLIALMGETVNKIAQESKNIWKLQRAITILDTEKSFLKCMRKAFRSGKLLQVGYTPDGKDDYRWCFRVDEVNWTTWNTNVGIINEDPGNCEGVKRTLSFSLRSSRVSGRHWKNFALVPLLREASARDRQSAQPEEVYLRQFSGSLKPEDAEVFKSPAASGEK
Assay: Functional assay: block of capsaicin-induced Ca2+ influx, human assay (hTRPV1/HEK293, FLIPR)
Format: cell-based
Details: hTRPV1/HEK293 cells, 150 nM capsaicin challenge, Fluo-3 fluorescence; mean; > value = solubility limit in assay medium
observed.property: IC50 (nM)
Give your result in nM as a bare value.

Req: Output measured IC50 for this item: `CS(=O)(=O)c1ccccc1Nc1nc2c(Nc3ccc(S(=O)(=O)C(F)(F)F)cc3)ncnc2s1`
Resp: 386

Req: Output measured IC50 for this item: `FC(F)(F)c1ccc(Nc2nc(N3CCNCC3)nc3sc(Nc4c(Cl)cccc4Cl)nc23)cc1`
Resp: 5950
